Data origin, for the record: patent US20240148821A1

target: protein-protein interaction between Kras and SOS1 (biotin-tagged human Kras loaded with GDP, His-tagged human SOS1) (Homo sapiens (Human), UniProt P01116, G12D); experiment: Protein-protein interaction inhibition between Kras and SOS1 (KrasG12D-SOS PPI) using AlphaScreen; assay type: biochemical; conditions: AlphaScreen; biotin-tagged human Kras loaded with GDP, His-tagged human SOS1; read-out: KRAS G12D-SOS PPI IC50;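 also: kras produced in E. coli, Ni-coupled donor beads and streptavidin acceptor beads, excitation 680 nm with emission detected at 520–620 nm via singlet oxygen transfer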
pIC50: −log10 of the molar value. Bridge positions count the residues as written; N and C are the ends. Square brackets hold non-standard residues; d marks the D form. Peptide text beside a SMILES is read from it. * marks the point of attachment. hPhe(3-Cl-4-CF3) = N[C@@H](CCc1ccc(C(F)(F)F)c(Cl)c1)C(=O)O; hPhe(3-F,4-CF3) = N[C@@H](CCc1ccc(C(F)(F)F)c(F)c1)C(=O)O; NMeCha = CN[C@@H](CC1CCCCC1)C(=O)O; Hyp = O=C(O)[C@@H]1C[C@@H](O)CN1; NMeD = CN[C@@H](CC(=O)O)C(=O)O; NMeL = CN[C@@H](CC(C)C)C(=O)O; NMeV = CN[C@H](C(=O)O)C(C)C; d(β3hA) = C[C@@H](N)CC(=O)O; NMeS = CN[C@@H](CO)C(=O)O; Piperidide = C1CCN(*)CC1; Ac5c = NC1(C(=O)O)CCCC1; Aze = O=C(O)[C@@H]1CCN1; CH2CMe2OH = CC(C)(O)C*; NBuGly = CCCCNCC(=O)O; Aib = CC(C)(N)C(=O)O; Cyclopropyl = C1CC1*; Isopentyl = CC(C)CC*; Sar = CNCC(=O)O
Values of pIC50 greater than or equal to 8 map to fulfilled; values below map to not fulfilled.

As a guide, the following entries are already answered.
>  <Compound>
CCCCN1CC(=O)N(C)CC(=O)N(C)[C@@H](COCCC(C)C)C(=O)N(C)CC(=O)N[C@@H](CCc2ccc(C(F)(F)F)c(Cl)c2)C(=O)N(C)[C@@H](COCC(C)(C)O)C(=O)NC(C)(C)C(=O)N(C)[C@@H](C(C)C)C(=O)N[C@H](C)CC(=O)N(C)[C@@H](CC(C)C)C(=O)N[C@@H]([C@@H](C)CC)C1=O [Compound 1505] (cyclo([Aib][NMeV][d(β3hA)][NMeL]I[NBuGly][Sar][NMeS](Isopentyl)[Sar][hPhe(3-Cl-4-CF3)][NMeS](CH2CMe2OH)))

>  <Class Label>
not fulfilled

$$$$
>  <Compound>
CC[C@H](C)[C@@H]1NC(=O)[C@H](CC(C)C)N(C)C(=O)C[C@@H](C(=O)N2CCCCC2)N(C)C(=O)[C@H](CC(C)C)N(C)C(=O)C2(CCCC2)NC(=O)[C@@H]2C[C@@H](O)CN2C(=O)[C@H](CCc2ccc(C(F)(F)F)c(F)c2)NC(=O)CN(C)C(=O)[C@H](CC2CCCCC2)N(C)C(=O)CN(C)C(=O)CN(C)C1=O [Compound 875] ([NMeL]I[Sar][Sar][NMeCha][Sar][hPhe(3-F,4-CF3)][Hyp][Ac5c][NMeL][NMeD]-Piperidide; lactam N-11)

>  <Class Label>
fulfilled

$$$$

Turning now to a further record.
input: Decide: pIC50 of CC[C@H](C)[C@@H]1NC(=O)[C@H](CC(C)C)N(C)C(=O)C[C@@H](C(=O)N2CCCCC2)N(C)C(=O)[C@H](C(C)C)N(C)C(=O)C2(CCCC2)NC(=O)[C@@H]2CCCN2C(=O)[C@H](CCc2ccc(C(F)(F)F)c(Cl)c2)NC(=O)CN(C)C(=O)[C@H](CC2CCCCC2)N(C)C(=O)[C@@H]2CCN2C(=O)[C@H](COC2CC2)N(C)C1=O [Compound 676] ([NMeL]I[NMeS](Cyclopropyl)[Aze][NMeCha][Sar][hPhe(3-Cl-4-CF3)]P[Ac5c][NMeV][NMeD]-Piperidide; lactam N-11) >= 8?
output: not fulfilled
